Source of measurements: ChEMBL document CHEMBL1149929

SYSTEM: Neuronal acetylcholine receptor; alpha4/beta2 (Homo sapiens, UniProt P17787+P43681)
MEASUREMENT PROTOCOL: Percent intrinsic activity against K177 cells relative to 100 uM (S)-nicotine.
Assay type: functional, cell-based
MEASUREMENT KIND: Intrinsic activity (%)
Give the value, in units of %, as a plain number.

Please report the recorded Intrinsic activity for CN1CCC[C@H]1c1cc2ncccc2o1 .
81

Could you tell me which Intrinsic activity is on file for CN1CCC[C@@H]1c1cc2ncccc2o1 ?
5.7

Recorded Intrinsic activity of Cc1cc([C@@H]2CCCN2C)on1 , please.
93

Item under review: CN1CCC[C@H]1COc1cccnc1 . Reported Intrinsic activity?
100

I am curious: what Intrinsic activity value has been reported for c1cnc2cc([C@H]3CCCN3)oc2c1 ?
30

Which Intrinsic activity value belongs to CN1CCC[C@H]1c1cccnc1 ?
100
